Tested on: MDA-MB-435
TEST_METHOD_NOTES: NCI tumour cell line growth inhibition, 48 h
# key: entry, value: TGI

Below are worked cases with known answers.
- COMPOUND: "O=C(Nc1cc(C(F)(F)F)cc(C(F)(F)F)c1)Nc1ccc(OCc2nnc(-c3ccc(Cl)cc3)o2)c(F)c1"
  ASSAYED_SYSTEM: "MDA-MB-435"
  QUANTITY_KIND: "TGI"
  REPORTED: "9.78 µM"
- COMPOUND: "CC(=O)N1N=C(c2ccc(Nc3nc(Nc4ccc(F)cc4)nc(Nc4ccc(Cl)cc4)n3)cc2)CC1c1ccc(N(C)C)cc1 (stereo unspecified)"
  ASSAYED_SYSTEM: "MDA-MB-435"
  QUANTITY_KIND: "TGI"
  REPORTED: "20.9 µM"

The recorded TGI for [O-]/[N+](=N/c1ncc(-c2ccccc2)cn1)c1ncc(-c2ccccc2)cn1 is > 100 µM

The recorded TGI for COc1cccc2c1C(=O)c1c(O)c3c(c(O)c1C2=O)C[C@@](O)(C(C)=O)C[C@@H]3OC1CC(O)C(O)C(C)O1 (stereo partly specified) is 27.7 µM

The recorded TGI for O=C(c1ccccc1)c1ccc(O)c2ncccc12 is 97.5 µM

###

Test system: BT-549 breast
TEST_METHOD_NOTES: NCI tumour cell line growth inhibition, 48 h
# key: entry, value: GI50

Below are worked cases with known answers.
- COMPOUND: "C=C(CN(C)Cc1ccccc1)c1ccc(C(=O)Nc2ccccc2N)cc1"
  REPORTED: "1480 nM"
- COMPOUND: "N#CSCC1CC(O)(c2ccccc2)CC(c2ccc(Cl)cc2)O1 (stereo not drawn)"
  REPORTED: "2350 nM"
- COMPOUND: "O=C(Nc1nc(-c2ccccc2)cs1)c1cc(O)c(O)c(O)c1"
  REPORTED: "3460 nM"

Item C[n+]1cc2cc3c(cc2c2ccccc21)OCO3 was tested on BT-549 breast; the reported GI50 is 2950 nM

Item CC(=O)N1N=C(c2ccc(Nc3nc(Nc4ccc(F)cc4)nc(Nc4ccc(Cl)cc4)n3)cc2)CC1c1ccc(N(C)C)cc1 (stereo not drawn) was tested on BT-549 breast; the reported GI50 is 5050 nM

Item C=C1C(=O)O[C@H]2[C@H]1CC/C(COC(=O)C(=O)c1c[nH]c3ccc(Cl)cc13)=C\CC[C@@]1(C)O[C@@H]21 was tested on BT-549 breast; the reported GI50 is 1380 nM

Item CCOc1ccc2c(c1)C(=O)c1c-2n(CCCN)c(=O)c2cc([N+](=O)[O-])ccc12 was tested on BT-549 breast; the reported GI50 is 473 nM

Item CNC12C3C4C1C1C2C3C41C(=O)N[C@H](C(=O)N(C)[C@H](C[C@@H](OC(C)=O)c1nc(C(=O)N[C@@H](Cc2ccccc2)C[C@H](C)C(=O)OC)cs1)C(C)C)C1CC1 (stereo partly drawn) was tested on BT-549 breast; the reported GI50 is 123 nM

###

# key: entry, value: TGI
Test system: A549 NSCLC
TEST_METHOD_NOTES: NCI tumour cell line growth inhibition, 48 h

- MOLECULE: "CN1C(=O)C(C#N)C2C[C@@]1(C)Oc1ccccc12 (stereo partly specified)"
  TGI: "> 100 µM"
- MOLECULE: "O=C(O)c1cc2cc(O)ccc2[nH]1"
  TGI: "> 100 µM"
- MOLECULE: "Cc1ccccc1C1CC(=O)CC(c2ccccc2C)C12C(=O)NC(=S)NC2=O (stereo unspecified)"
  TGI: "> 100 µM"
- MOLECULE: "CN(C(=O)c1cc2c(s1)sc1c(=O)n(C)c3ccccc3c12)c1ccccc1"
  TGI: "> 100 µM"
- MOLECULE: "OCc1ncc(-c2ccccc2)s1"
  TGI: "> 100 µM"
- MOLECULE: "N/N=C(/CC(O)(C(F)(F)F)C(F)(F)F)c1ccccc1"
  TGI: "> 10 µM"
- MOLECULE: "CC1(C)CC2C(/C1=N/O)C1(C)CCCC2(C)C1O (stereo unspecified)"
  TGI: "> 100 µM"
- MOLECULE: "O=c1oc2c(cc1-c1ccccc1)C(O)Oc1ccccc1-2 (stereo unspecified)"
  TGI: "95.8 µM"

The recorded TGI for CC(=O)c1c2c(cc3c1CC1(C3)Cc3cc4c(c(C(C)=O)c3C1)CCCC4)CCCC2 is > 100 µM

The recorded TGI for O=C1Nc2ccc(CN3CCOC3=O)cc2/C1=C/c1cc(CN2CCOCC2)c[nH]1 is > 100 µM

The recorded TGI for CNC(C)[C@H]1CCC2C3CCC4C[C@@H](N(C)C(=O)c5ccccc5)CC[C@]4(C)C3CC[C@@]21C (stereo partly specified) is 7.29 µM
